Molecular target: 5-hydroxytryptamine receptor 1A (Rattus norvegicus)
Sequence (P19327 whole entry): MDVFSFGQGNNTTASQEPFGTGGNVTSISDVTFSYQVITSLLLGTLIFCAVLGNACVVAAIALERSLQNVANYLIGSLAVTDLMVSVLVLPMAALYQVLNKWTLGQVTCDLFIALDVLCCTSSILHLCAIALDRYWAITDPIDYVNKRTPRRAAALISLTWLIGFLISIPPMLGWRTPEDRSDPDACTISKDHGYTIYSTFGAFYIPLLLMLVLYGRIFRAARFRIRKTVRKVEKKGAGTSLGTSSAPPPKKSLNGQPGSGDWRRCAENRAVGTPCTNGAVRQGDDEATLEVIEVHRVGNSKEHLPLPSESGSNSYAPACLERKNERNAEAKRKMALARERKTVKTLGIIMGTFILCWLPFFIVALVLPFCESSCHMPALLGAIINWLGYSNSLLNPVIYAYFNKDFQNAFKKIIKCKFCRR
Before we begin, note that these Ki values for 5-hydroxytryptamine receptor 1A (Rattus norvegicus) originate from several publications.
endpoint-name: Ki (nM)

>  <compound>
O=C1/C(=C\c2cccs2)c2ccccc2N1CCCN1CCN(c2cccc(Cl)c2)CC1

>  <endpoint-name>
Ki

>  <measured-result>
20500

$$$$
>  <compound>
Br.Cc1ccc2c(c1O)C[C@@H](C1CCCCC1)O[C@H]2CN

>  <endpoint-name>
Ki

>  <measured-result>
54.1

$$$$
>  <compound>
CCCOC(=O)c1ccccc1N1CCN(CCCCN2CC(=O)N3CCCCC3C2=O)CC1.Cl (stereo not drawn)

>  <endpoint-name>
Ki

>  <measured-result>
24

$$$$

A = CCCN(CCC)[C@H]1COc2c(cccc2-c2ccccc2OC)C1
B = COc1cccc(-c2ccccc2)c1OCCNC[C@@H]1COc2ccccc2O1
Task: Parameter check: reported Ki is higher for which label, A or B ? Reply briefly: the label of your chosen item.
Output: B
